Test system: Wheat
Test: Preemergent activity
Format: in vivo
Conditions: Triticum aestivum, pre-emergence; 0.56 kgs/hectare; read-out: Preemergence Control
# reported plant injury at 560 g/ha; entries follow
Quick note: give the figure in %, leave out the unit.

Worked set:
[
  {
    "compound": "CC(Oc1ccc(Oc2ccc(Br)cc2F)cc1)C(=O)O (stereo not shown)",
    "plant injury at 560 g/ha / %": 0
  },
  {
    "compound": "CC(Oc1ccc(Oc2ccc(Br)cc2F)cc1)C(N)=O (stereo not shown)",
    "plant injury at 560 g/ha / %": 90
  },
  {
    "compound": "CC(Oc1ccc(Oc2ccc(Br)cc2F)cc1)C(=O)Nc1ccc(C(F)(F)F)cc1 (stereo not shown)",
    "plant injury at 560 g/ha / %": 0
  },
  {
    "compound": "CCOCCOC(=O)C(C)Oc1ccc(Oc2ccc(Br)cc2F)cc1 (stereo not shown)",
    "plant injury at 560 g/ha / %": 0
  },
  {
    "compound": "CCCCCCCCOC(=O)C(C)Oc1ccc(Oc2ccc(Br)cc2F)cc1 (stereo not shown)",
    "plant injury at 560 g/ha / %": 0
  },
  {
    "compound": "COC(=O)[C@@H](C)Oc1ccc(Oc2ccc(Cl)cc2F)cc1 [4-Chloro-(R-Enantiomer)]",
    "plant injury at 560 g/ha / %": 10
  }
]

Name the reported plant injury at 560 g/ha value associated with the compound CC(Oc1ccc(Oc2ccc(Br)cc2F)cc1)C(=O)N(C)c1ccccc1 (stereo not shown)
0

Any idea what plant injury at 560 g/ha was measured for CCCCOC(=O)C(C)Oc1ccc(Oc2ccc(Br)cc2F)cc1 (stereo not shown) ?
30

// plant injury at 560 g/ha lookup, key: C=CCNC(=O)C(C)Oc1ccc(Oc2ccc(Br)cc2F)cc1 (stereo not shown)
0

Which plant injury at 560 g/ha value is on record for C=CCOC(=O)C(C)Oc1ccc(Oc2ccc(Br)cc2F)cc1 (stereo not shown) ?
0

---

Tested on: Wild Oats
Experiment: Postemergent activity
Format: in vivo
Details: Avena fatua, post-emergence, 336 h; 250 ppm; read-out: % Control
# Lookup of reported pest or weed control at 250 ppm keyed by entry
The reply should contain only the number, in %.

Could you tell me which pest or weed control at 250 ppm is on file for COC(=O)C=C(OC)C(C)Oc1ccc(Oc2ccc(Br)cc2F)cc1 (stereo not shown) ?
0

What value of measured pest or weed control at 250 ppm is listed for CCOC(=O)CC(O)C(C)Oc1ccc(Oc2ccc(Br)cc2F)cc1 (stereo not shown) ?
50

What value of pest or weed control at 250 ppm has been reported for the following compound? CC(=O)CC(O)C(C)Oc1ccc(Oc2ccc(Br)cc2F)cc1 (stereo not shown)
0

Looking for the measured pest or weed control at 250 ppm of C=CC(=O)C(C)Oc1ccc(Oc2ccc(Br)cc2F)cc1 (stereo not shown) , can you help?
0

Can you share its pest or weed control at 250 ppm? I mean this compound: COC(=O)[C@@H](C)Oc1ccc(Oc2ccc(Br)cc2F)cc1 [4-Bromo-(R-Enantiomer)]
100

Please look up its pest or weed control at 250 ppm: COC(=O)C(C)Oc1ccc(Oc2ccc(Br)cc2F)cc1 (racemic)
100

# lookup: pest or weed control at 250 ppm of CC(=O)C(C(C)=O)C(=O)C(C)Oc1ccc(Oc2ccc(Br)cc2F)cc1 (stereo not shown)
50

---

Tested on: Yellow Foxtail
Test: Preemergent activity
Format: in vivo
Conditions: Setaria, pre-emergence; 0.28 kgs/hectare; read-out: Preemergence Control
API: label(entry) gives rule met if the entry's pest or weed control at 280 g/ha is strictly smaller than 90%; on equality or larger values it gives rule not met.

Worked examples follow.
[
  {
    "molecule": "CC(Oc1ccc(Oc2ccc(Br)cc2F)cc1)C(=O)OCCN(C)C (stereo not shown) [O(CH2)2 N(CH3)2]",
    "label-class": "rule met"
  },
  {
    "molecule": "CCCCCCCCOC(=O)C(C)Oc1ccc(Oc2ccc(Br)cc2F)cc1 (stereo not shown) [O(CH2)7 CH3]",
    "label-class": "rule met"
  }
]

Lab log: compare recorded pest or weed control at 280 g/ha with 90%; is it strictly lower for COC(=O)C(C)Oc1ccc(Oc2ccc(I)cc2F)cc1 (stereo not shown) ?
rule met

Take the molecule C=CCNC(=O)C(C)Oc1ccc(Oc2ccc(Br)cc2F)cc1 (stereo not shown) and say whether its pest or weed control at 280 g/ha is less than 90%.
rule met

Does C#CCOC(=O)C(C)Oc1ccc(Oc2ccc(Br)cc2F)cc1 (stereo not shown) [OCH2CCH] have pest or weed control at 280 g/ha strictly under 90%?
rule not met

hey, is pest or weed control at 280 g/ha for COc1cccc(NC(=O)C(C)Oc2ccc(Oc3ccc(Br)cc3F)cc2)c1 (stereo not shown) lower than 90% or not?
rule met

hey, is pest or weed control at 280 g/ha for CC(Oc1ccc(Oc2ccc(Br)cc2F)cc1)C(=O)OC1CCCC1 (stereo not shown) lower than 90% or not?
rule not met

---

System: Johnson Grass
Experiment: Preemergent activity
Assay type: in vivo
Conditions: Sorghum halepense, pre-emergence; 0.28 kgs/hectare; read-out: Preemergence Control
recorded-metric: pest or weed control at 280 g/ha (%)
Reply with just the number (in %).

# get_value(readout='pest or weed control at 280 g/ha', item= C#CCOC(=O)C(C)Oc1ccc(Oc2ccc(Br)cc2F)cc1 (centres unmarked) )
50

Form field: reported pest or weed control at 280 g/ha of CCOCCOC(=O)C(C)Oc1ccc(Oc2ccc(Br)cc2F)cc1 (centres unmarked)
0

# pest or weed control at 280 g/ha lookup, item CC(Oc1ccc(Oc2ccc(Br)cc2F)cc1)C(N)=O (centres unmarked)
30

pest or weed control at 280 g/ha for C=CCNC(=O)C(C)Oc1ccc(Oc2ccc(Br)cc2F)cc1 (centres unmarked) ?
50

Fill in: pest or weed control at 280 g/ha of CCCCCCCCOC(=O)C(C)Oc1ccc(Oc2ccc(Br)cc2F)cc1 (centres unmarked) is ___
100

---

System: Wheat
Assay: Postemergent activity
Format: in vivo
Conditions: Triticum aestivum, post-emergence, 336 h; 31.25 ppm; read-out: % Control
Quick list: plant injury at 31.25 ppm per entry.
Please don't drop the unit; write it after the number.

Examples with answers:
[
  {
    "compound": "COC(=O)[C@@H](C)Oc1ccc(Oc2ccc(Br)cc2F)cc1 [4-Bromo-(R-Enantiomer)]",
    "plant injury at 31.25 ppm": "0%"
  },
  {
    "compound": "COC(=O)C(C)Oc1ccc(Oc2ccc(I)cc2F)cc1 (stereo not shown)",
    "plant injury at 31.25 ppm": "0%"
  },
  {
    "compound": "COC(=O)C(C)Oc1ccc(Oc2ccc(C(F)(F)F)cc2F)cc1 (stereo not shown)",
    "plant injury at 31.25 ppm": "100%"
  }
]

Attention now shifts to the item below.
Given the compound COC(=O)C(C)Oc1ccc(Oc2ccc(Br)cc2F)cc1 (racemic) , what is its reported plant injury at 31.25 ppm?
0%

---

Tested on: Yellow Foxtail
Experiment: Preemergent activity
Format: in vivo
Settings: Setaria, pre-emergence; 0.28 kgs/hectare; read-out: Preemergence Control
Method: In a representative operation, 2-[4-(2-fluoro-4-trifluoromethylphenoxy)phenoxy]propionic acid methyl ester, to be utilized in a series of tests, is dissolved in acetone to one half of the final volume (twice the final concentration) to be used and the acetone solution in each case is admixed with an equal volume of water containing 0.1 percent by weight of Tween-20 surface active material (Tween-20 is a trademark of Atlas Chemical Company). […]
recorded-metric: pest or weed control at 280 g/ha

[
  {
    "compound": "CC(Oc1ccc(Oc2ccc(Br)cc2F)cc1)C(N)=O (centres unmarked)",
    "target-under-test": "Yellow Foxtail",
    "pest or weed control at 280 g/ha": "95%"
  },
  {
    "compound": "COC(=O)[C@@H](C)Oc1ccc(Oc2ccc(Cl)cc2F)cc1 [4-Chloro-(R-Enantiomer)]",
    "target-under-test": "Yellow Foxtail",
    "pest or weed control at 280 g/ha": "30%"
  },
  {
    "compound": "CCOCCOC(=O)C(C)Oc1ccc(Oc2ccc(Br)cc2F)cc1 (centres unmarked)",
    "target-under-test": "Yellow Foxtail",
    "pest or weed control at 280 g/ha": "80%"
  },
  {
    "compound": "CCCCOC(=O)C(C)Oc1ccc(Oc2ccc(Br)cc2F)cc1 (centres unmarked)",
    "target-under-test": "Yellow Foxtail",
    "pest or weed control at 280 g/ha": "95%"
  }
]

Look up pest or weed control at 280 g/ha for this compound: COC(=O)C(C)Oc1ccc(Oc2ccc(C(F)(F)F)cc2F)cc1 (centres unmarked)
100%
